Biological target: human androgen receptor (hAR) (Homo sapiens, UniProt P10275)
Experiment: Functional response test: hAR transactivation (luciferase reporter) in HALP2 cells
Type: cell-based
Details: agonism; HALP2 cells (HeLa, hAR + ARE-luciferase), 20 hours at 37° C.
From the text: This test constitutes a method of identifying pure or partial agonists which mimic the effects of natural hormones, such as DHT (dihydrotestosterone) in the present case or, on the other hand, antagonists which inhibit them. For this transactivation test, plasmids encoding a reporter gene and the human androgen receptor (hAR) are introduced together by transfection into the HeLa cell line. […]
measuredProperty: EC50 (nM)
Answer format: numeric, nM implied, no suffix.

molecule | measuredProperty | recordedResult
CN1C(=O)N(c2ccc(F)c(Cl)c2)C(=O)C1c1ccc(O)cc1 (centres unmarked) | EC50 | 69.3

**Query** Suppose we examine the molecule CC(=O)OCC#CCN1C(=O)N(c2ccc(Cl)c(Cl)c2)C(=O)C1(C)c1ccc(O)cc1 (centres unmarked) ; what EC50 value has been reported?
**Result** 12.3

**Query** For the molecule shown here, CN1C(=O)N(c2ccc(Cl)c(Cl)c2)C(=O)C1(CO)c1ccc(O)cc1 (centres unmarked) , give the reported EC50.
**Result** 1.38

**Query** Consider the molecule shown here: CC1(c2ccc(O)cc2)C(=O)N(c2ccc(Cl)c(Cl)c2)C(=O)N1CCCCO (centres unmarked) What is its recorded EC50?
**Result** 15

**Query** Which EC50 value belongs to O=C1C(c2ccc(O)cc2)N(CCCCO)C(=O)N1c1cccc(C(F)(F)F)c1 (centres unmarked) ?
**Result** 600

**Query** Requested field: EC50. Item: CCOC(=O)CCN1C(=O)N(c2ccc(F)c(Cl)c2)C(=O)C1c1ccc(O)cc1 (centres unmarked)
**Result** 69.3

**Query** Param item = C=CCN1C(=O)N(c2ccc(Cl)c(C(F)(F)F)c2)C(=O)C1c1ccc(O)cc1 (centres unmarked) ; retrieve measured EC50.
**Result** 34.6

**Query** # input molecule: CCCN1C(=O)N(c2cccc(C(F)(F)F)c2)C(=O)C1c1ccc(O)cc1 (centres unmarked) ; wanted: its EC50
**Result** 69.3

* * *

Quick list: KSchild (nM) potency per entry.
Molecular target: UniProt P10275
Sequence (P10275 1-920): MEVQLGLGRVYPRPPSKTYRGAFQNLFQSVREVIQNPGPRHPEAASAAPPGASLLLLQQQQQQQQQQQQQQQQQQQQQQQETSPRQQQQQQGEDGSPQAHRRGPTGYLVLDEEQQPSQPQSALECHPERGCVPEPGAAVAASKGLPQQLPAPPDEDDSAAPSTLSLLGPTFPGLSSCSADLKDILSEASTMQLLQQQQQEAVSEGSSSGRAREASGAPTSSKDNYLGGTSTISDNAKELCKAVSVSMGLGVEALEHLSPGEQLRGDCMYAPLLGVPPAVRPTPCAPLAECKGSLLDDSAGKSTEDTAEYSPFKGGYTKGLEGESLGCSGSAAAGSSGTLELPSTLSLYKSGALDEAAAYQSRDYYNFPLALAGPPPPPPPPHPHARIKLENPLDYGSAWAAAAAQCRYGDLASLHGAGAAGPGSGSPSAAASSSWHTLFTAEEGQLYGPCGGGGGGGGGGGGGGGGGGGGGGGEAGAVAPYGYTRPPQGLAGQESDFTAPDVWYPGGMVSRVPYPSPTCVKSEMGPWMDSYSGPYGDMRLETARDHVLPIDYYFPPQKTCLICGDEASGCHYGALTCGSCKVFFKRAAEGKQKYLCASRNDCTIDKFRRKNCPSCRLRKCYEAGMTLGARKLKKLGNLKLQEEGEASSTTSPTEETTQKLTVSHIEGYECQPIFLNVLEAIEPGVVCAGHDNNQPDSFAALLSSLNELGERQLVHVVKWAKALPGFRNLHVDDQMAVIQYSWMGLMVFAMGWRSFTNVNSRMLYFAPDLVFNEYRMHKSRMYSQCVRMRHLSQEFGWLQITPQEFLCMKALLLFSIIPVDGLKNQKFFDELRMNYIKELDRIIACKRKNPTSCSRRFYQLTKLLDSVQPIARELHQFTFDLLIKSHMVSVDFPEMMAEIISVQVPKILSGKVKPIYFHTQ
Assay: Functional response test: hAR transactivation (luciferase reporter) in HALP2 cells
Format: cell-based
Note: unit nM is implicit; provide only the numeric part.

Check out these entries, answers already filled in.
molecule | recordedResult
C#CCN1C(=O)N(c2ccc(C#N)c(C(F)(F)F)c2)C(=O)C1c1ccc(O)cc1 (centres unmarked) | 7.38
COC(=O)CCN1C(=O)N(c2ccc(C#N)c(C(F)(F)F)c2)C(=O)C1(C)c1ccc(O)cc1 (centres unmarked) | 15

In the following, a different molecule is considered.
**Query** What is its KSchild (nM) potency for UniProt P10275? Entry: CSCN1C(=O)N(c2ccc(C#N)c(C(F)(F)F)c2)C(=O)C1(C)c1ccc(O)cc1 (centres unmarked)
**Result** 15

* * *

Entries and their KSchild (nM) potency values follow.
Target: UniProt P10275
Sequence (P10275 1-920): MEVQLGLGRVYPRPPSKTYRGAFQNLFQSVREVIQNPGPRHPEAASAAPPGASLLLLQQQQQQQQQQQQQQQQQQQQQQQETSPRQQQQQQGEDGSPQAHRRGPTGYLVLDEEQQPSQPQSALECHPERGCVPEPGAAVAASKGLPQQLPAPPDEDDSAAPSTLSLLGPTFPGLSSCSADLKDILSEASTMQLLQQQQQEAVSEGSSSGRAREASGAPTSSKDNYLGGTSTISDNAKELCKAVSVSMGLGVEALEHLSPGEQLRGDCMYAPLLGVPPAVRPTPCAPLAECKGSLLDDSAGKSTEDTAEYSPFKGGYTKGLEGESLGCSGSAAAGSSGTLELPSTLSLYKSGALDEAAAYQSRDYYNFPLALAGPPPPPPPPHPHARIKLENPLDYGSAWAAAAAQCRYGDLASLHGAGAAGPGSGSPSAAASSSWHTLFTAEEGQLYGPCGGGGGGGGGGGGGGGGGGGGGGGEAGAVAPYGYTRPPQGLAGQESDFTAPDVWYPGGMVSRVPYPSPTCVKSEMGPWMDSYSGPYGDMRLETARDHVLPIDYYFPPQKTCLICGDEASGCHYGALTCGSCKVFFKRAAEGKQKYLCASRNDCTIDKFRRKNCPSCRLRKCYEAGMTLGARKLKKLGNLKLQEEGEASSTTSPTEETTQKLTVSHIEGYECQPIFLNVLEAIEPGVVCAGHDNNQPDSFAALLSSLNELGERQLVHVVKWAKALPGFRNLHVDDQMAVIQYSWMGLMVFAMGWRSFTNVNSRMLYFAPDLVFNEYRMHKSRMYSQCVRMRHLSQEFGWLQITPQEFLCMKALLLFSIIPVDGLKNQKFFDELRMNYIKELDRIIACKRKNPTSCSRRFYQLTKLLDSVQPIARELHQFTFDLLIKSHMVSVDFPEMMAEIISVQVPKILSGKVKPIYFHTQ
Experiment: Functional response test: hAR transactivation (luciferase reporter) in HALP2 cells
Format: cell-based
Conditions: antagonism; concentration which increases the EC50 of the DHT by a factor of 2, Schild regression; HALP2 cells
The reply should contain only the number, in nM.

compound | tgt | KSchild (nM) potency
O=C1C(c2ccc(O)cc2)N(Cc2ccc3c(c2)OCO3)C(=O)N1c1ccc(Cl)c(Cl)c1 (centres unmarked) [Example 99] | UniProt P10275 | 69.28

**Query** Give KSchild (nM) potency (UniProt P10275) of the following compound: CC1(c2ccc(O)cc2)C(=O)N(c2ccc(Cl)c(Cl)c2)C(=O)N1CCO (centres unmarked) [Example 146]
**Result** 30

**Query** Form field: KSchild (nM) potency recorded for O=C1C(c2ccc(O)cc2)N(Cc2ccsc2)C(=O)N1c1ccc(Cl)c(Cl)c1 (centres unmarked) [Example 10] with UniProt P10275 (enter value)
**Result** 13.69

**Query** Request - read-out KSchild (nM) potency | tested on UniProt P10275 | compound C#CCN1C(=O)N(c2ccc(Cl)c(Cl)c2)C(=O)C1c1ccc(O)cc1 (centres unmarked) [Example 66]
**Result** 21.21

**Query** Recall the recorded KSchild (nM) potency for COc1cccc(C2C(=O)N(c3ccc(Cl)c(Cl)c3)C(=O)N2C)c1 (centres unmarked) [Example 151] with UniProt P10275 and state it.
**Result** 42.43

**Query** Provide value of KSchild (nM) potency for this record tested with UniProt P10275: CCC1(c2ccc(O)cc2)C(=O)N(c2ccc(C#N)c(C(F)(F)F)c2)C(=O)N1C (centres unmarked) [Example 183]
**Result** 2

**Query** Reported KSchild (nM) potency for UniProt P10275, given CN(C)CCN1C(=O)N(c2ccc(Cl)c(C(F)(F)F)c2)C(=O)C1c1ccc(O)cc1 (centres unmarked) [Example 117] ?
**Result** 77.46

**Query** Give UniProt P10275 KSchild (nM) potency for O=C1C(c2ccc(O)cc2)N(CCCCO)C(=O)N1c1cccc(C(F)(F)F)c1 (centres unmarked) [Example 136]
**Result** 600
